# credit: patent US20040167226A1

# measurement protocol: Brain-blood distribution of Compound A in the rat
# Assay type: in vivo
# condition notes: brain / whole blood, single po dose 30 mg/kg, 1.0 h post-dose, n = 5, read-out: Brain/Blood Ratio (Mean ± SD)
endpoint: Kp at 1 h

# compound, experimental result
rows = [
    ("CC(=O)Nc1ccc(C(=O)NC(C)(C)C)cc1 [Compound A, N-tert-butyl-4-acetamidobenzamide]", 0.66),
]

----------
# measurement protocol: Brain-blood distribution of Compound A in the mouse
# Format: in vivo
# condition notes: brain / whole blood, single po dose 30 mg/kg, 1.0 h post-dose, n = 5, read-out: Brain/Blood Ratio (Mean ± SD)

# compound, Kp at 1 h
data = [
    ("CC(=O)Nc1ccc(C(=O)NC(C)(C)C)cc1 [Compound A, N-tert-butyl-4-acetamidobenzamide]", 0.8),
]

----------
# measurement protocol: PK parameter estimates, 30 mg/kg po in 1% methyl cellulose
# Type: in vivo, rats
# condition notes: rat, plasma; rats, 30 mg/kg po in 1% methyl cellulose, n = 3
# Description: The time course of plasma concentration of compound N is depicted in FIG. 1 as well.

# compound, Cmax
data = [
    ("CC(=O)Nc1ccc(C(=O)NC(C)(C)C)cc1 [Compound A, N-tert-butyl-4-acetamidobenzamide]", "34000 ng/mL"),
    ("CC(C)(C)NC(=O)c1ccc(N)cc1 [Compound N, N-tert-butyl-4-aminobenzamide]", "5400 ng/mL"),
]

----------
# measurement protocol: Brain-blood distribution of Compound A in the rat
# Type: in vivo
# condition notes: brain / whole blood, single po dose 30 mg/kg, 2.0 h post-dose, n = 5, read-out: Brain/Blood Ratio (Mean ± SD)
endpoint: Kp at 2 h

# compound, experimental result
rows = [
    ("CC(=O)Nc1ccc(C(=O)NC(C)(C)C)cc1 [Compound A, N-tert-butyl-4-acetamidobenzamide]", 0.67),
]

----------
# measurement protocol: Brain-blood distribution of Compound A in the mouse
# Type: in vivo
# condition notes: brain / whole blood, single po dose 30 mg/kg, 0.5 h post-dose, n = 5, read-out: Brain/Blood Ratio (Mean ± SD)

# molecule, Kp at 0.5 h
records = [
    ("CC(=O)Nc1ccc(C(=O)NC(C)(C)C)cc1 [Compound A, N-tert-butyl-4-acetamidobenzamide]", 0.79),
]

----------
Each record here notes measured half-life.
# measurement protocol: PK parameter estimates, 30 mg/kg po in 1% methyl cellulose
# Assay type: in vivo, rats
# condition notes: rat, plasma; rats, 30 mg/kg po in 1% methyl cellulose, n = 3; read-out: Elim.t1/2 (converted)

# compound, half-life / days
data = [
    ("CC(=O)Nc1ccc(C(=O)NC(C)(C)C)cc1 [Compound A, N-tert-butyl-4-acetamidobenzamide]", 0.458),
    ("CC(C)(C)NC(=O)c1ccc(N)cc1 [Compound N, N-tert-butyl-4-aminobenzamide]", 14.8),
]

----------
# measurement protocol: PK parameter estimates, 30 mg/kg po in 1% methyl cellulose
# Type: in vivo, rats
# condition notes: rat, plasma; rats, 30 mg/kg po in 1% methyl cellulose, n = 3
# From the text: The time course of plasma concentration of compound N is depicted in FIG. 1 as well.

# compound, Tmax (h)
records = [
    ("CC(C)(C)NC(=O)c1ccc(N)cc1 [Compound N, N-tert-butyl-4-aminobenzamide]", 0.5),
    ("CC(=O)Nc1ccc(C(=O)NC(C)(C)C)cc1 [Compound A, N-tert-butyl-4-acetamidobenzamide]", 8),
]

----------
# measurement protocol: Absolute oral bioavailability and blood t1/2 of Compound A
# Type: in vivo, rats
# condition notes: rat, whole blood; AUC of 20 mg/kg oral (1% methyl cellulose) vs 20 mg/kg IV (75% PEG); read-out: absolute bioavailability through oral dosing
endpoint: bioavailability (%)

# compound, experimental result
data = [
    ("CC(=O)Nc1ccc(C(=O)NC(C)(C)C)cc1 [Compound A, N-tert-butyl-4-acetamidobenzamide]", 52),
]

----------
# measurement protocol: Brain-blood distribution of Compound A in the squirrel monkey
# Assay type: in vivo
# condition notes: brain / whole blood, twice-daily 10 mg/kg po for 5 weeks, 24 h post-dose, n = 12, read-out: Brain/Blood Ratio (Mean ± SD)
# Experimental: Blood-brain distribution of Compound A was assessed in the mouse, rat, and squirrel monkey by determining the concentrations of Compound A in blood and brain tissue at specific times post dose. Rats and mice received a single po dose of 30 mg/kg. The monkeys received a twice-daily 10 mg/kg po dose of Compound A for a total of 5 weeks prior to sacrifice. Brain to blood ratios for Compound A, as shown below in Table 4, show high penetration of the blood-brain barrier.
endpoint: Kp at 24 h

# compound, experimental result
records = [
    ("CC(=O)Nc1ccc(C(=O)NC(C)(C)C)cc1 [Compound A, N-tert-butyl-4-acetamidobenzamide]", 0.88),
]

----------
# measurement protocol: Brain-blood distribution of Compound A in the rat
# Type: in vivo
# condition notes: brain / whole blood, single po dose 30 mg/kg, 0.5 h post-dose, n = 5, read-out: Brain/Blood Ratio (Mean ± SD)

# compound, Kp at 0.5 h
measured = [
    ("CC(=O)Nc1ccc(C(=O)NC(C)(C)C)cc1 [Compound A, N-tert-butyl-4-acetamidobenzamide]", 0.71),
]

----------
# measurement protocol: Brain-blood distribution of Compound A in the mouse
# Format: in vivo
# condition notes: brain / whole blood, single po dose 30 mg/kg, 2.0 h post-dose, n = 5, read-out: Brain/Blood Ratio (Mean ± SD)

# compound, Kp at 2 h
records = [
    ("CC(=O)Nc1ccc(C(=O)NC(C)(C)C)cc1 [Compound A, N-tert-butyl-4-acetamidobenzamide]", 0.76),
]
